Test system: Enterococcus spp.
Test: minimum inhibitory concentration (MIC)
Details: isolate (source animal id): 183
readoutKind: minimum inhibitory concentration (µg/mL)
Answers are plain numbers, in µg/mL.

compound	experimentalTarget	minimum inhibitory concentration [µg/mL]
CC[C@H]1OC(=O)C[C@@H](O)[C@H](C)[C@@H](O[C@@H]2O[C@H](C)[C@@H](O[C@H]3C[C@@](C)(O)[C@@H](O)[C@H](C)O3)[C@H](N(C)C)[C@H]2O)[C@@H](CC=O)C[C@@H](C)C(=O)/C=C/C(C)=C/[C@@H]1CO[C@@H]1O[C@H](C)[C@@H](O)[C@@H](OC)[C@H]1OC [Tylosin]	Enterococcus spp.	2

I would be grateful if you could provide minimum inhibitory concentration for each of the following entries.
1. CC[C@H]1OC(=O)C[C@@H](O)[C@H](C)[C@@H](O[C@@H]2O[C@H](C)[C@@H](O)[C@H](N(C)C)[C@H]2O)[C@@H](CCN2CCCCC2)C[C@@H](C)C(=O)/C=C/C(C)=C/[C@@H]1CN1CCCCC1 [Tildipirosin]
2. NC[C@@H]1O[C@H](O[C@H]2[C@@H](O)[C@H](O[C@@H]3[C@@H](O)[C@H](N)C[C@H](N)[C@H]3O[C@H]3O[C@H](CN)[C@@H](O)[C@H](O)[C@H]3N)O[C@@H]2CO)[C@H](N)[C@@H](O)[C@@H]1O [Neomycin]

1. 8
2. 32

Origin of measurements: the supplement of paper PMC8612539
